assayed-system: EGFR on A431 epidermoid carcinoma cells (human, UniProt P00533 25-1210)
assay-summary: cell-based or functional assay
We begin with a simple list: items and their reported ADCC EC50.
Report the value in Molar with no unit label.

Illustrative cases are given below, each with its answer.
Would you kindly share the measured ADCC EC50 for H1H089N (antibody, human IgG1, V domains shown, Tested in human IgG1 Fc format (H1H); also called H1M089N) VH: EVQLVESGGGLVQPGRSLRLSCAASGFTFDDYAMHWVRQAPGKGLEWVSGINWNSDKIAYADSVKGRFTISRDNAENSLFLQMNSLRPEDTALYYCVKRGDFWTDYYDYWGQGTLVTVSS VL: DIVMTQSPLSLPVTPGEPASISCRSSQSLLHSNGHNYLDWYLQKPGQSPHLLIYLVSNRASGVPDRFSGSGSGTDFTLKISRVEAEDVGVYYCIQALQTPWTFGQGTKVEIK ?
5.83e-12

Now consider H1H155P (antibody, human IgG1, V domains shown, Human IgG1 Fc (H1H)) VH: QVQLVESGGGVVQPGRSLRLSCAASGFTFSIYGMHWVRQAPGKGLEWVTVISDDGSKKYYVDSVKGRFTLSRDNSKNTLYLQMNSLRAEDTAVYYCARDRITGTNWYGMDVWGQGTTVTVSS VL: DIQMTQSPSSLSASVGDRVTITCRASQDISNYLAWFQQKPGKAPKSLIFAASSLQSGGPSKFSGSGSGTDFTLTISSLQPEDFATYYCQQYNRYPFTFGPGTKVDIK .
1.67e-11

Now consider the entry below.
Would you kindly share the measured ADCC EC50 for H1H158P (antibody, human IgG1, V domains shown, Human IgG1 Fc (H1H)) VH: QVQLVESGGGVVQPGGSLRLSCAASGFTFSIYGIHWVRQAPGKGLEWVAVISDDGSNKKYADSVKGRFTISRDNSKNTLYLQMNSLRAEDTAIFYCAKDRITGTHYYGMDVWGQGTTVTVSS VL: DIQMTQSPSSLSASVGDRVSITCRASQDISNYLAWFQQKPGKAPKSLIYAASSLQSGVPSKFSGSGSGIEFTLTISSLQPEDFSTYYCHQYNRFPWTFGQGTKVEIK ?
2.32e-12
